Record form. Attribute: z-score. Fill in for each entry.
experiment: MM1S myeloma cell viability, profiling panel, resazurin fluorescence, basal, 24 h, PK04 Diversity Set (AID 1174); conditions: higher = more signal, called active from +8 up or from −8 down;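 further: MM1S multiple myeloma cell line; test concentration not given here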
Number only, no unit.

Need z-score of `C=CCc1cccc([C@@H]2[C@@H](C)CC[C@H]3C(=O)N4[C@H](c5cccc(CC=C)c5)[C@@H](C)CC[C@H]4C(=O)N23)c1` , thanks. 0.778

Also `C[N+](C)(C)CCCC[C@@H]1NC(=O)[C@H]2C[C@@H](C(=O)NCc3ccc(F)cc3)[C@@H](c3cccc(OCCO)c3)N2C1=O` ? 1.33

Also `CCCN1C(=O)[C@@]2(CCS(=O)(=O)c3ccccc3)N=C(c3ccc(OCCCO)cc3)O[C@H]2c2ccccc21` ? -1.03

Also `C=CCNC(=O)[C@H]1[C@@H]2C(=O)O[C@@H](c3ccccc3)[C@@H](c3ccccc3)N2[C@@H](c2ccccc2OCCO)[C@]12C(=O)N(C(=O)OCCOC)c1ccc(C#CCNC(N)=O)cc12` ? 1.71

Also `C=C(COC)/C(=C/C[C@@H](OC(C)=O)c1cccc(OCCO)c1)c1cc(C(=O)OC)ccc1OC` ? 0.49

Also `COCCCNC(=O)[C@@]1(c2ccc([N+](=O)[O-])cc2)CC(=O)N(C2CCCCC2)[C@@H]1c1ccc(CO)cc1` ? 0.337

Also `CCCNC(=O)[C@@]1(Sc2ccc(C)cc2)CC(=O)N(Cc2ccccc2Cl)[C@@H]1c1ccc(CO)cc1` ? 1.12

Also `O=C(NCc1ccccc1)c1ccc(Br)cc1[N+](=O)[O-]` ? 0.0636
